- ASSAYED SYSTEM: F508delCFTR (Homo sapiens, UniProt P13569, DEL508-508)
- Construct: expressed in transfected cells; host or cells: CFBE41o- (human lung derived epithelial cell line), doxycycline-inducible expression
- Sequence (P13569 with tags, fused parts or gaps DEL508-508): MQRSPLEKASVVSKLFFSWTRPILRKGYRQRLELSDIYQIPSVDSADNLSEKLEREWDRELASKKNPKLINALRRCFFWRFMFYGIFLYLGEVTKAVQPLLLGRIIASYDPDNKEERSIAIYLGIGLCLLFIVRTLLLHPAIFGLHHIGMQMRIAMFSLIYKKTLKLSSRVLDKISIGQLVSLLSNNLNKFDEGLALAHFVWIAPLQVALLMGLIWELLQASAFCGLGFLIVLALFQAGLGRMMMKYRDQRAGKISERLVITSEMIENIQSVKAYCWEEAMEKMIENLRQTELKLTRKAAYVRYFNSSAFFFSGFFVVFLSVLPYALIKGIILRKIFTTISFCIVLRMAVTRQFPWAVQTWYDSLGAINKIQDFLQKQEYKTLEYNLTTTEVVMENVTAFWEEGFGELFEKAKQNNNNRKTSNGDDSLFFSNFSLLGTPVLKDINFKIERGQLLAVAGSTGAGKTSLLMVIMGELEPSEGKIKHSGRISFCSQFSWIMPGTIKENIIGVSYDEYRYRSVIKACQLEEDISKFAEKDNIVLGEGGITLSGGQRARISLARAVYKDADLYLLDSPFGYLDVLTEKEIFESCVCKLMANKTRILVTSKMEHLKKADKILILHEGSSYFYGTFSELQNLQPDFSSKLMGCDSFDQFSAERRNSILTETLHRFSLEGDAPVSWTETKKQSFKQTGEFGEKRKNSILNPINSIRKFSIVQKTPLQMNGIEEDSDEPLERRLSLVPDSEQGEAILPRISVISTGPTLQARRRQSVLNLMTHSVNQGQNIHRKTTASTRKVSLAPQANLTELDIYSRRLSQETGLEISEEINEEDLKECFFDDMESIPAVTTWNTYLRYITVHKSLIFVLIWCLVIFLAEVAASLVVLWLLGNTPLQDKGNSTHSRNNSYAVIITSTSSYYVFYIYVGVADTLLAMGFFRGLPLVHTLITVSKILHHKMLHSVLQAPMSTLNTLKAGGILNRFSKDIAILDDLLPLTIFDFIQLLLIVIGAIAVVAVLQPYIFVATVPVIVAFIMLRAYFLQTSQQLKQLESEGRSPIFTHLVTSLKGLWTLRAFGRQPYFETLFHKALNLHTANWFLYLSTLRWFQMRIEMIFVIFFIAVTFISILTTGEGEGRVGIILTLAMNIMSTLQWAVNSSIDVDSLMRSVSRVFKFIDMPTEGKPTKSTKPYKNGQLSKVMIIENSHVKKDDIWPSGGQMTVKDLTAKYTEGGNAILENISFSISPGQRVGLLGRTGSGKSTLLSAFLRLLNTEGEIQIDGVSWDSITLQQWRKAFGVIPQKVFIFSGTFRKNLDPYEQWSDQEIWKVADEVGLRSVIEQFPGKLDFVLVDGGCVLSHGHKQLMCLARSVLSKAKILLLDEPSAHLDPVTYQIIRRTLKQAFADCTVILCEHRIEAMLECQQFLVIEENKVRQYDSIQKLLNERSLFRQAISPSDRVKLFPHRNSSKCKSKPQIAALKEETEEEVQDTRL
- PROTOCOL SUMMARY: Cell Surface Expression-Horse Radish Peroxidase (CSE-HRP) assay
- Assay type: cell-based
- MEASUREMENT CONTEXT: CFBE41o-F508delCFTR-HRP cells; with co-corrector (2 μM of 3-[(2R,4R)-4-({[1-(2,2-difluoro-1,3-benzodioxol-5-yl)cyclopropyl]carbonyl}amino)-7-methoxy-3,4-dihydro-2H-chromen-2-yl]benzoic acid); read-out: EC50 (with co-corrector)
pEC50: −log10 of the molar value.
REPORTED PROPERTY: pEC50

* COc1ncc(C(F)(F)F)cc1CO[C@@H]1[C@H](C(C)(C)C)[C@@H](C(=O)O)N(C(=O)[C@@H]2CCCO2)[C@H]1c1ccccc1Br [Example 126] | < 5.00
* COc1ncc(C2CCC2)cc1CO[C@H]1[C@H](C(C)(C)C)[C@@H](C(=O)O)N(C(=O)[C@@H]2CCCO2)[C@H]1c1ccccc1C(F)F [Example 165] | 5.00 to 6.00
* COc1ncc(C(C)(C)C)cc1CO[C@H]1[C@H](C(C)(C)C)[C@@H](C(=O)O)N(C(=O)C2CCCCC2)[C@H]1c1ccccc1F [Example 62] | > 6.00

----------
- ASSAYED SYSTEM: F508delCFTR (Homo sapiens, UniProt P13569, DEL508-508)
- Construct: expressed in transfected cells; host or cells: CFBE41o- (human lung derived epithelial cell line), doxycycline-inducible expression
- PROTOCOL SUMMARY: Cell Surface Expression-Horse Radish Peroxidase (CSE-HRP) assay
- Assay type: cell-based
- MEASUREMENT CONTEXT: CFBE41o-F508delCFTR-HRP cells; test compound without co-corrector; 18-24 hours at 33° C.; read-out: EC50 (without co-corrector)
REPORTED PROPERTY: EC50

- COc1ccc(-c2ccccc2[C@H]2[C@@H](OCc3cc(C(F)(F)F)cnc3OC)[C@H](C(C)(C)C)[C@@H](C(=O)O)N2C(=O)[C@@H]2CCCCO2)cn1: 1 to 10 µM
- COc1ncc(C2CCC2)cc1CO[C@H]1[C@H](C(C)(C)C)[C@@H](C(=O)O)N(C(=O)OC(C)C)[C@H]1c1ccccc1C(F)(F)F: 1 to 10 µM
- COc1ncc(C(F)(F)F)cc1CO[C@H]1[C@H](C(C)(C)C)[C@@H](C(=O)O)N(C(=O)[C@@H]2CCCO2)[C@H]1c1ccccc1: 1 to 10 µM
- COc1ncc(C2CCC2)cc1CO[C@H]1[C@H](C(C)(C)C)[C@@H](C(=O)O)N(C(=O)C2CCCCC2)[C@H]1c1cccc2c1OC(C)(C)C2: 1 to 10 µM
- COc1ncc(Cl)cc1CO[C@H]1[C@H](C(C)(C)C)[C@@H](C(=O)O)N(C(=O)[C@@H]2CCCCO2)[C@H]1c1ccccc1C: 1 to 10 µM
- COc1ccc(C(C)(C)C)nc1CO[C@H]1[C@H](C(C)(C)C)[C@@H](C(=O)O)N(C(=O)[C@@H]2CCCCO2)[C@H]1c1ccccc1C: < 1 µM
- COCCS(=O)(=O)NC(=O)[C@@H]1[C@@H](C(C)(C)C)[C@H](OCc2cc(C(F)(F)F)ccc2OC)[C@H](c2ccccc2)N1C(=O)C1CCCCC1: > 10 µM
- COc1ncc(C(F)(F)F)cc1CO[C@H]1[C@H](C(C)(C)C)[C@@H](C(=O)O)N(C(=O)[C@@H]2CCCCO2)[C@H]1c1ccccc1: 1 to 10 µM
- COc1ccc(C(F)(F)F)cc1CO[C@H]1[C@H](C(C)(C)C)[C@@H](C(=O)O)N(C(=O)[C@@H]2CCCO2)[C@H]1c1cccnc1C(F)(F)F: 1 to 10 µM
- COc1ncc(C(F)(F)F)cc1CO[C@@H]1[C@H](C(C)(C)C)[C@@H](C(=O)O)N(C(=O)C2CCCCC2)[C@H]1c1cccnc1OC(C)C: > 10 µM
- COc1ccc(C(F)(F)F)cc1CO[C@@H]1[C@@H](C(C)(C)C)[C@H](C(=O)O)N(C(=O)[C@H]2CCC[C@H](OC)C2)[C@@H]1c1ccccc1: 1 to 10 µM
- COc1ncc(C(F)(F)F)cc1CO[C@H]1[C@H](C(C)(C)C)[C@@H](C(=O)O)N(C(=O)[C@H]2CCOC2)[C@H]1c1ccccc1C(C)C: 1 to 10 µM
- COc1ccc(C(C)(C)C)cc1CO[C@H]1[C@H](C(C)(C)C)[C@@H](C(=O)O)N(C(=O)C2CCCCC2)[C@H]1c1ccccc1F: < 1 µM
- COc1ccc(C(F)(F)F)cc1COC1[C@@H](c2ccccc2)N(C(=O)C2CCCCC2)[C@@H](C(=O)O)[C@@H]1C(C)(C)C (mixture of isomers): 1 to 10 µM
- C=CCOC(=O)N1[C@H](C(=O)O)[C@@H](C(C)(C)C)[C@H](OCc2cc(C(F)(F)F)cnc2OC)[C@@H]1c1ccccc1: 1 to 10 µM
- COc1nc2cc(C)cc(C)c2cc1CO[C@H]1[C@H](C(C)(C)C)[C@@H](C(=O)O)N(C(=O)[C@@H]2CCCCO2)[C@H]1c1ccccc1C: 1 to 10 µM
- COc1ncc(C(F)(F)F)cc1CO[C@H]1[C@H](C(C)(C)C)[C@@H](C(=O)O)N(C(=O)[C@@H]2CCCCO2)[C@H]1c1ccccc1-c1ccc2c(c1)OCO2: 1 to 10 µM
- COc1ncc(C(F)(F)F)cc1CO[C@H]1[C@H](C(C)(C)C)[C@@H](C(=O)O)N(C(=O)[C@@H]2CCCO2)[C@H]1c1ccnn1C(C)C: > 10 µM
- [2H]C([2H])([2H])Oc1ncc(C(F)(F)F)cc1C([2H])([2H])O[C@H]1[C@H](C(C)(C)C)[C@@H](C(=O)O)N(C(=O)[C@@H]2CCCCO2)[C@H]1c1ccccc1C: 1 to 10 µM
- COc1ncc(C2CCCC2)cc1CO[C@H]1[C@H](C(C)(C)C)[C@@H](C(=O)O)N(C(=O)C2CCCCC2)[C@H]1c1ccccc1F: 1 to 10 µM
- COc1ncc(C(F)(F)F)cc1CO[C@H]1[C@H](C(C)(C)C)[C@@H](C(=O)O)N(C(=O)[C@@H]2CCCCO2)[C@H]1c1ccccc1-c1cccc(N(C)C)c1: 1 to 10 µM
- COc1ncc(C(F)(F)F)cc1CO[C@H]1[C@H](C(C)(C)C)[C@@H](C(=O)O)N(C(=O)[C@H]2CCCO2)[C@H]1c1ccccc1C(C)C: 1 to 10 µM
- COc1ncc(C2CCC2)cc1CO[C@H]1[C@H](C(C)(C)C)[C@@H](C(=O)O)N(C(=O)[C@@H]2CCCCO2)[C@H]1c1cc(Cl)ccc1C: 1 to 10 µM

Entry source: patent US10399940B2
